test system: MV-4-11; assay: Cell growth inhibition assay (CellTiter-Glo), MV-4-11; format: cell-based, human; conditions: MV-4-11 cells, 4 days, total growth inhibition
Measure: MV-4-11 TGI (µM)
Please respond with the number in µM and leave the unit unwritten.

// below: answered compounds
> print(dat)
                                   compound  test.result
1  CNC(=O)c1cn(C)c2c1C(=O)N(c1cc(C)c3nnc(C(F)F)n3c1)C2c1ccc(Cl)cc1 (stereo not shown) [Example 132]      0.02315
2  Cc1cn(C)c2c1C(=O)N(c1cc(C)c3nnc(C(F)F)n3c1)C2c1ccc(Cl)cc1 (stereo not shown) [Example 107]      0.02295
3  Cc1cc(N2C(=O)c3cc(-c4ccccn4)n(C)c3C2c2ccc(Cl)cc2)cn(C)c1=O (stereo not shown) [Example 52]        2.355

Proceeding to the next compound to report its MV-4-11 TGI.
Prompt: Requested field: MV-4-11 TGI. Item: Cc1cc(N2C(=O)c3c(C4CC4)cn(C4CN(C)C4)c3C2c2ccc(Cl)cc2)nc2c1nnn2C (stereo not shown) [Example 106]
Response: 0.00223

----------
# MV-4-11: GI50 values follow
Please respond with the number in nM and leave the unit unwritten.

// below: answered molecules
> print(dat)
                                   molecule  test.result
1  Cc1cc(N2C(=O)c3c(NC(=O)CCN(C)C)cn(C)c3C2c2ccc(Cl)cc2)cc2c1nnn2C (stereo not shown)         16.1
2  Cc1cn(CCO)c2c1C(=O)N(c1cc(C)c3nnc(C)n3c1)C2c1ccc(Cl)cc1 (stereo not shown)         14.6
3  Cc1cc(N2C(=O)c3c(C(N)=O)cn(C)c3C2c2ccc(Cl)cc2)cn2c(C)nnc12 (stereo not shown)         57.4

Prompt: Give GI50 (MV-4-11) of the following molecule: Cc1cc(N2C(=O)c3ccn(C)c3C2c2ccccc2)cn(C)c1=O (stereo not shown)
Response: 295

Prompt: Give GI50 (MV-4-11) of the following molecule: "Cc1cc2c(n1C)[C@@H](c1ccc(Cl)cc1)N(c1cc(Cl)c(=O)n(C)c1)C2=O"
Response: 54.8

Prompt: Give GI50 (MV-4-11) of the following molecule: Cc1cc(N2C(=O)c3c(NC(=O)CN(C)C)cn(C)c3C2c2ccc(Cl)cc2)cn2c(C(F)F)nnc12 (stereo not shown)
Response: 31.5

----------
test system: THP-1; assay: Cell growth inhibition assay (CellTiter-Glo), THP-1; assay type: cell-based, human; details: THP-1 cells, 4 days, total growth inhibition
The entries below are paired with their reported THP-1 TGI.
Please respond with the number in nM and leave the unit unwritten.

> print(dat)
                                   molecule  units.of.measure  test.result
1  Cn1cc(N2C(=O)c3cc(-c4cccn(C)c4=O)n(C4CC4)c3C2c2ccc(Cl)cc2)cc(Cl)c1=O (centres unmarked)                nM        215.5
2  Cn1ccc2c1C(c1ccc(F)cc1)N(c1cc(Cl)c(=O)n(C)c1)C2=O (centres unmarked)                nM          683
3  Cc1cn(C2COC2)c2c1C(=O)N(c1cc(C)c3nnc(C)n3c1)C2c1ccc(Cl)cc1 (centres unmarked)                nM        29.25
4  CNC(=O)n1cc(C)c2c1C(c1ccc(Cl)cc1)N(c1cc(C)c3nnc(C)n3c1)C2=O (centres unmarked)                nM         43.3
5  Cn1ccc2c1C(c1ccccc1)N(c1cc(Cl)c(=O)n(C)c1)C2=O (centres unmarked)                nM        795.5

Prompt: Requested field: THP-1 TGI. Item: CC(=O)N1CC(n2cc(C3CC3)c3c2C(c2ccc(Cl)cc2)N(c2cc(C)c4nnc(C)n4c2)C3=O)C1 (centres unmarked)
Response: 168

Prompt: Requested field: THP-1 TGI. Item: "COc1ncc(-c2cc3c(n2C)[C@@H](c2ccc(Cl)cc2)N(c2cc(C)c(=O)n(C)c2)C3=O)cn1"
Response: 50.7

Prompt: Requested field: THP-1 TGI. Item: Cn1cc(-c2cc3c(n2C2CC2)C(c2ccc(Cl)cc2)N(c2cc(Cl)c(=O)n(C)c2)C3=O)ccc1=O (centres unmarked)
Response: 135

----------
system: MV-4-11; experiment: Cell growth inhibition assay (CellTiter-Glo), MV-4-11; assay type: cell-based, human; details: MV-4-11 cells, 4 days, total growth inhibition
Mark t for reported MV-4-11 TGI of 50 nM or greater; mark f for anything smaller.

Worked cases, answers included:
> print(dat)
                                   compound  assigned.category
1  CC(=O)N1CC(n2cc(C)c3c2C(c2ccc(Cl)cc2)N(c2cc(C)c4nnc(C)n4c2)C3=O)C1 (stereo not shown)                  t
2  COc1ncccc1-c1c(C2CC2)c2c(n1C)C(c1ccc(Cl)cc1)N(c1cc(C)c3nnc(C)n3c1)C2=O (stereo not shown)                  f
3  Cc1cc(N2C(=O)c3ccn(C(=O)N(C)C)c3C2c2ccc(Cl)cc2)cn2c(C)nnc12 (stereo not shown)                  t

Prompt: Reported MV-4-11 TGI reaches at least 50 nM for Cc1cc(N2C(=O)c3c(NC(=O)CCN(C)C)cn(C)c3C2c2ccc(Cl)cc2)cc2c1nnn2C (stereo not shown) ?
Response: f

Prompt: Reported MV-4-11 TGI reaches at least 50 nM for COc1ncc(-c2cc3c(n2C)C(c2ccc(Cl)cc2)N(c2cc(C)c(=O)n(C)c2)C3=O)cn1 (stereo not shown) ?
Response: t

Prompt: Reported MV-4-11 TGI reaches at least 50 nM for Cc1cc(N2C(=O)c3c(C4CC4)cn(C4COC4)c3C2c2ccc(Cl)cc2)cn2c(C)nnc12 (stereo not shown) ?
Response: f

Prompt: Reported MV-4-11 TGI reaches at least 50 nM for Cc1cc2c(n1C)C(c1ccc(Cl)cc1)N(c1cc(Cl)c(=O)n(C)c1)C2=O (stereo not shown) ?
Response: t

----------
system: MV-4-11
# thresholds on GI50 define classes: low-valued = under 10 nM, mid-valued = from 10 nM up to 80 nM, high-valued = 80 nM and over

Worked cases, answers included:
> print(dat)
                                   compound  assigned.category
1  Cn1cc(-c2cc3c(n2C2CC2)C(c2ccc(Cl)cc2)N(c2cc(Cl)c(=O)n(C)c2)C3=O)ccc1=O (stereo not shown) [Example 66]         mid-valued
2  CNC(=O)c1cn(C)c2c1C(=O)N(c1cc(C)c3nnc(C(F)F)n3c1)C2c1ccc(Cl)cc1 (stereo not shown) [Example 132]         low-valued
3  COc1ncc(-c2cc3c(n2C)C(c2ccc(Cl)cc2)N(c2cc(C)c(=O)n(C)c2)C3=O)cn1 (stereo not shown) [Example 55]         mid-valued

Prompt: Class label required: Cc1cc(N2C(=O)c3c(C4CN(C)C4)cn(C)c3C2c2ccc(Cl)cc2)cn2c(C)nnc12 (stereo not shown) [Example 118]
Response: high-valued

Prompt: Class label required: COCCn1cc(C)c2c1C(c1ccc(Cl)cc1)N(c1cc(C)c3nnc(C)n3c1)C2=O (stereo not shown) [Example 13]
Response: mid-valued

Prompt: Class label required: Cc1cn(C2CN(C)C2)c2c1C(=O)N(c1cc(C)c3nnn(C)c3n1)C2c1ccc(Cl)cc1 (stereo not shown) [Example 20]
Response: low-valued

Prompt: Class label required: Cc1cc(N2C(=O)c3cc(-c4cccc(=O)n4C)n(C)c3C2c2ccc(Cl)cc2)cn(C)c1=O (stereo not shown) [Example 48]
Response: high-valued

Prompt: Class label required: Cc1cn(CCN(C)C)c2c1C(=O)N(c1cc(C)c3nnc(C)n3c1)C2c1ccc(Cl)cc1 (stereo not shown) [Example 128]
Response: mid-valued

Prompt: Class label required: Cn1ccc2c1C(c1ccc(Cl)cc1)N(c1cc(Cl)c(=O)n(C)c1)C2=O (stereo not shown) [Example 76]
Response: high-valued

Prompt: Class label required: Cn1ccc2c1C(c1ccc(Cl)cc1)N(c1ccc(=O)n(C)c1)C2=O (stereo not shown) [Example 78]
Response: high-valued

Prompt: Class label required: Cc1cc(N2C(=O)c3cc(C4CC4)n(C)c3C2c2ccc(Cl)cc2)cn(C)c1=O (stereo not shown) [Example 68]
Response: mid-valued

Prompt: Class label required: COc1ncccc1-c1c(C2CC2)c2c(n1C)C(c1ccc(Cl)cc1)N(c1cc(C)c3nnc(C)n3c1)C2=O (stereo not shown) [Example 120]
Response: low-valued

Prompt: Class label required: Cc1cc(N2C(=O)c3c(C(=O)N(C)C)cn(C)c3C2c2ccc(Cl)cc2)nc2c1nnn2C (stereo not shown) [Example 94]
Response: low-valued

Prompt: Class label required: Cc1cc(N2C(=O)c3cc(-c4ccc(=O)n(C)c4)n(C)c3C2c2ccc(Cl)cc2)cn(C)c1=O (stereo not shown) [Example 46]
Response: high-valued

Prompt: Class label required: CNC(=O)Nc1cn(C)c2c1C(=O)N(c1cc(C)c3nnc(C(F)F)n3n1)C2c1ccc(Cl)cc1 (stereo not shown) [Example 111]
Response: mid-valued
